Consider the following compounds and their measured MIC readings.
Tested on: Staphylococcus aureus
Assay: Antibacterial activity against methicillin-resistant Staphylococcus aureus CCARM 3167 after 24 hrs by two-fold serial dilution method
Type: functional
Settings: CCARM 3167, 24 h
# number only, unit µg/mL dropped from output

Please review the following examples before continuing.
INSERT INTO assay_data (smiles_notation, quantity_measured, measured_value) VALUES
  ('N=C(N)N/N=C/c1cn(-c2ccc([N+](=O)[O-])cc2[N+](=O)[O-])nc1-c1ccc(Br)cc1', 'MIC', 2),
  ('N=C(N)N/N=C/c1cn(-c2ccc([N+](=O)[O-])cc2[N+](=O)[O-])nc1-c1ccccc1[N+](=O)[O-]', 'MIC', 16),
  ('N=C(N)N/N=C/c1cn(-c2ccccc2)nc1-c1cccc(Cl)c1', 'MIC', 1);

We next turn to a different compound, shown below.
[in] Give the measured MIC of "N=C(N)N/N=C/c1cn(-c2ccc([N+](=O)[O-])cc2[N+](=O)[O-])nc1-c1ccc(Cl)cc1" .
[out] 2

---

Consider the following molecules and their measured MIC readings.
System: Staphylococcus aureus
Test: Antibacterial activity against methicillin-resistant Staphylococcus aureus CCARM 3506 after 24 hrs by two-fold serial dilution method
Format: functional
Settings: CCARM 3506, 24 h
# number only, unit µg/mL dropped from output

INSERT INTO assay_data (molecule, subject_of_test, quantity_measured, readout_unit, measured_value) VALUES
  ('CCn1cc(C(=O)O)c(=O)c2cc(F)c(N3CCNCC3)cc21', 'Staphylococcus aureus', 'MIC', 'µg/mL', 4);

[in] Give the measured MIC of "N=C(N)N/N=C/c1cn(-c2ccccc2)nc1-c1ccc(Br)cc1" .
[out] 4

[in] Give the measured MIC of "N=C(N)N/N=C/c1cn(-c2ccc([N+](=O)[O-])cc2[N+](=O)[O-])nc1-c1ccccc1Br" .
[out] 4

[in] Give the measured MIC of "N=C(N)N/N=C/c1cn(-c2ccccc2)nc1-c1ccc(F)cc1" .
[out] 8

[in] Give the measured MIC of COc1c(N2CCNC(C)C2)c(F)cc2c(=O)c(C(=O)O)cn(C3CC3)c12 (centres undefined) .
[out] 2

---

Consider the following molecules and their measured MIC readings.
Test system: Staphylococcus aureus
Test: Antibacterial activity against quinolone-resistant Staphylococcus aureus CCARM 3519 after 24 hrs by two-fold serial dilution method
Format: functional
Conditions: CCARM 3519, 24 h
# number only, unit µg/mL dropped from output

Please review the following examples before continuing.
INSERT INTO measurements (smiles_notation, quantity_measured, measured_value) VALUES
  ('N=C(N)N/N=C/c1cn(-c2ccc([N+](=O)[O-])cc2[N+](=O)[O-])nc1-c1cccc(Cl)c1', 'MIC', 2),
  ('N=C(N)N/N=C/c1cn(-c2ccc([N+](=O)[O-])cc2[N+](=O)[O-])nc1-c1cccc(Br)c1', 'MIC', 2),
  ('N=C(N)N/N=C/c1cn(-c2ccc([N+](=O)[O-])cc2[N+](=O)[O-])nc1-c1ccc(Cl)cc1Cl', 'MIC', 2),
  ('Cc1cccc(-c2nn(-c3ccc([N+](=O)[O-])cc3[N+](=O)[O-])cc2/C=N/NC(=N)N)c1', 'MIC', 4),
  ('COc1c(N2C[C@@H]3CCCN[C@@H]3C2)c(F)cc2c(=O)c(C(=O)O)cn(C3CC3)c12', 'MIC', 4);

[in] Give the measured MIC of "N=C(N)N/N=C/c1cn(-c2ccc([N+](=O)[O-])cc2[N+](=O)[O-])nc1-c1ccccc1[N+](=O)[O-]" .
[out] 32

---

Test system: Staphylococcus aureus
Experiment: Antibacterial activity against methicillin-resistant Staphylococcus aureus CCARM 3506 after 24 hrs by two-fold serial dilution method
Type: functional
Conditions: CCARM 3506, 24 h
quantity measured: MIC (µg/mL)
# number only, unit µg/mL dropped from output

Please review the following examples before continuing.
INSERT INTO assay_data (smiles_notation, readout_unit, measured_value) VALUES
  ('Cc1ccc(-c2nn(-c3ccc([N+](=O)[O-])cc3[N+](=O)[O-])cc2/C=N/NC(=N)N)cc1', 'µg/mL', 2),
  ('N=C(N)N/N=C/c1cn(-c2ccc([N+](=O)[O-])cc2[N+](=O)[O-])nc1-c1ccc(F)cc1', 'µg/mL', 4),
  ('N=C(N)N/N=C/c1cn(-c2ccc([N+](=O)[O-])cc2[N+](=O)[O-])nc1-c1ccccc1F', 'µg/mL', 4),
  ('N=C(N)N/N=C/c1cn(-c2ccc([N+](=O)[O-])cc2[N+](=O)[O-])nc1-c1ccccc1[N+](=O)[O-]', 'µg/mL', 8),
  ('N=C(N)N/N=C/c1cn(-c2ccc([N+](=O)[O-])cc2[N+](=O)[O-])nc1-c1cccc(Br)c1', 'µg/mL', 1),
  ('N=C(N)N/N=C/c1cn(-c2ccc([N+](=O)[O-])cc2[N+](=O)[O-])nc1-c1ccccc1', 'µg/mL', 8);

[in] Give the measured MIC of "COc1cccc(-c2nn(-c3ccc([N+](=O)[O-])cc3[N+](=O)[O-])cc2/C=N/NC(=N)N)c1" .
[out] 2

[in] Give the measured MIC of "Cc1ccc(-c2nn(-c3ccc([N+](=O)[O-])cc3[N+](=O)[O-])cc2/C=N/NC(=N)N)c(C)c1" .
[out] 2

[in] Give the measured MIC of "N=C(N)N/N=C/c1cn(-c2ccc([N+](=O)[O-])cc2[N+](=O)[O-])nc1-c1ccc(Cl)cc1Cl" .
[out] 2

[in] Give the measured MIC of "N=C(N)N/N=C/c1cn(-c2ccc([N+](=O)[O-])cc2[N+](=O)[O-])nc1-c1ccc(Br)cc1" .
[out] 1

[in] Give the measured MIC of "Cc1ccc(-c2nn(-c3ccccc3)cc2/C=N/NC(=N)N)cc1" .
[out] 2

[in] Give the measured MIC of "N=C(N)N/N=C/c1cn(-c2ccc([N+](=O)[O-])cc2[N+](=O)[O-])nc1-c1ccc(Cl)cc1" .
[out] 2

[in] Give the measured MIC of "N=C(N)N/N=C/c1cn(-c2ccc([N+](=O)[O-])cc2[N+](=O)[O-])nc1-c1ccccc1Cl" .
[out] 4

[in] Give the measured MIC of "N=C(N)N/N=C/c1cn(-c2ccccc2)nc1-c1cccc(Cl)c1" .
[out] 1

[in] Give the measured MIC of "COc1ccc(-c2nn(-c3ccc([N+](=O)[O-])cc3[N+](=O)[O-])cc2/C=N/NC(=N)N)cc1" .
[out] 2

[in] Give the measured MIC of "N=C(N)N/N=C/c1cn(-c2ccc([N+](=O)[O-])cc2[N+](=O)[O-])nc1-c1cccc(Cl)c1" .
[out] 1

[in] Give the measured MIC of "Cc1cccc(-c2nn(-c3ccc([N+](=O)[O-])cc3[N+](=O)[O-])cc2/C=N/NC(=N)N)c1" .
[out] 2

---

Tested on: Mus musculus
Assay: Antiinflammatory activity in mouse assessed as inhibition of xylene-induced ear edema at 50 mg/kg, ip administered 30 mins before xylene challenge relative to control
Assay type: functional
Consider the following compounds and their measured inhibition in vivo at 50 mg/kg readings.
# number only, unit % dropped from output

INSERT INTO measurements (compound, readout_unit, measured_value) VALUES
  ('N=C(N)N/N=C/c1cn(-c2ccccc2)nc1-c1cccc(Cl)c1', '%', 93.6);

We next turn to a different compound, shown below.
[in] Give the measured inhibition in vivo at 50 mg/kg of "N=C(N)N/N=C/c1cn(-c2ccccc2)nc1-c1ccc(F)cc1" .
[out] 61.4

---

Test system: Staphylococcus aureus
Assay: Antibacterial activity against Staphylococcus aureus 503 after 24 hrs by two-fold serial dilution method
Format: functional
Settings: Staphylococcus aureus, 503, 24 h
Consider the following compounds and their measured MIC readings.
# number only, unit µg/mL dropped from output

INSERT INTO assay_data (smiles_notation, measured_value) VALUES
  ('N=C(N)N/N=C/c1cn(-c2ccc([N+](=O)[O-])cc2[N+](=O)[O-])nc1-c1ccccc1', 8),
  ('N=C(N)N/N=C/c1cn(-c2ccc([N+](=O)[O-])cc2[N+](=O)[O-])nc1-c1ccc(F)cc1', 4),
  ('COc1c(N2C[C@@H]3CCCN[C@@H]3C2)c(F)cc2c(=O)c(C(=O)O)cn(C3CC3)c12', 2);

[in] Give the measured MIC of "COc1ccc(-c2nn(-c3ccc([N+](=O)[O-])cc3[N+](=O)[O-])cc2/C=N/NC(=N)N)cc1" .
[out] 4

[in] Give the measured MIC of "Cc1ccc(-c2nn(-c3ccc([N+](=O)[O-])cc3[N+](=O)[O-])cc2/C=N/NC(=N)N)c(C)c1" .
[out] 4
